Provenance of the data: paper PMC8919507

test_system: mouse AChE (Mus musculus, UniProt P21836)
Sequence (P21836 32-614): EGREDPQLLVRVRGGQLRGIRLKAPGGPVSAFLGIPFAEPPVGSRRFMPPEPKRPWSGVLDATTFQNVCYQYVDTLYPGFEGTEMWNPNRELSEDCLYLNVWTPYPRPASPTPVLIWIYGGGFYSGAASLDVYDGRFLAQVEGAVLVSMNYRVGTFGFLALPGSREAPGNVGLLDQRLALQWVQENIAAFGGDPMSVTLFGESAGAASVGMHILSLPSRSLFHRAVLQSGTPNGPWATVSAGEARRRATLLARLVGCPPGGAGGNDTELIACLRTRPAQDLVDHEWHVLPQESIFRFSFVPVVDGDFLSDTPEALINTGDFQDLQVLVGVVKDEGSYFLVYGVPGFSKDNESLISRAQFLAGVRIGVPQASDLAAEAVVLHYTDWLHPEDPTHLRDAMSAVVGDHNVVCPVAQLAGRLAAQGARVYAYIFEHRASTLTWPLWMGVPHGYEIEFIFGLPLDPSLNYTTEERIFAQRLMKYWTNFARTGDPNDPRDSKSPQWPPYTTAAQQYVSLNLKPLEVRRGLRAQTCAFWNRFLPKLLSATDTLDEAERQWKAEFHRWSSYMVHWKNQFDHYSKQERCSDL
protocol_text: AChE inhibition, spectrophotometric Ellman's method on purified recombinant enzyme
measurement_setup: 1 mM acetylthiocholine iodide, pH 7.4
Entries and their IC50 values follow.

| compound | units_label | IC50 |
| --- | --- | --- |
| Cc1c(C)c2ccc(OCC3CCCN(Cc4ccccc4)C3)cc2oc1=O (single isomer, unassigned; (+)) [(+)-2] | nM | 1500 |
| Cc1c(C)c2ccc(OCC3CCCN(Cc4ccccc4)C3)cc2oc1=O (single isomer, unassigned; (-)) [(−)-2] | nM | 700 |
